measured-target: T1, CD123 (Homo sapiens (Human), UniProt P26951 19-305, limits assumed)
T1 construct: also called CD123-Signal
T1 sequence: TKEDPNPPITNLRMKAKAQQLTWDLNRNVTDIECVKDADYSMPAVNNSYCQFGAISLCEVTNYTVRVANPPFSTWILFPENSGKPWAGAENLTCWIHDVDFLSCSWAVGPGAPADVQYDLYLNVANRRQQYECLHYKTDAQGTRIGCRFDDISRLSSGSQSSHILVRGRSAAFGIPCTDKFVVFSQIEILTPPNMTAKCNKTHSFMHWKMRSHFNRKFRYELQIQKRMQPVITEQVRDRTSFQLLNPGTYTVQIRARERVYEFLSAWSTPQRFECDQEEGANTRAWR
procedure-details: ELISA, format not described
Design: unit not given here
For each record, write down the corresponding ELISA_avg.

Item under review: D domain SEQ ID NO: 672 (designed binder) MGSWWEFLDRLEAIEYRLQALGGSEAELAVFEWEIAMFEDHLQGYKGKGNPEVEALHSEAHAIISELSAYRHN . Reported ELISA_avg?
3.1

Repeat for the following binder: D domain SEQ ID NO: 739 (designed binder) MGSWYEFADRLWAIEDRLWALGGSEAELAAFEKEIAAFESELQAYKGKGNPEVEFLRYYAADIRWVLQAYRHN
4

Moving on to the next binder: D domain SEQ ID NO: 687 (designed binder) MGSWREFHDRLFAIDGRLWALGGSEAELANFEWDIADFEFELQDYKGKGNPEVEALSWEADAIMQELGAYRHN
5.6
